Tested on: Solanum tuberosum
test details: Inhibition of Solanum tuberosum (potato) inner mitochondrial membrane NDH2 assessed as […] reductase activity at 100 uM relative to control
Activity calls are given as the source filed them. The calls are words filed in the database; no cut-off is given here.
outcome measure: inhibition

CCCCCCCCCCCC(=O)NCc1ccccc1OC ... inactive
COc1ccc(CNC(=O)c2ccc(-c3ccccc3)cc2)cc1OC ... inactive
CCCCCCCCCCCCNC(=O)c1ccc(OC)c(OC)c1 ... inactive
CCCCCCCCCCCC(=O)NCc1ccc(OC)cc1 ... 100%
CCCCCCCCCCCC(=O)NCc1ccc(OC)cc1OC ... inactive
COc1ccc(CNC(=O)c2cccc3ccccc23)cc1OC ... inactive
COc1ccc(CNC(=O)c2ccc(OCc3ccccc3)cc2)cc1OC ... inactive
CCCCc1ccc(Oc2ccc(C(=O)NCc3ccc(OC)c(OC)c3)cc2)cc1 ... inactive

The value of inhibition measured for the compound COc1cc(CNC(=O)CCCC/C=C/C(C)C)ccc1O turned out to be inactive

# compound COc1ccc(CNC(=O)c2ccc(Oc3ccc(C)cc3)cc2)cc1OC ; its inhibition = inactive

inhibition measured on CCCCCCCCCCCC(=O)NCc1cc(OC)ccc1OC = 100%

// inhibition lookup, compound = CCCCCCCCCCCCC(=O)Nc1ccc(OC)c(OC)c1 , result: inactive
